Data provenance: patent US20210332111A1

Target Entity: recombinant ZIKV DIII (domain III of the E protein, strain H/PF/2013, residues 299 to 407) (Zika virus, strain H/PF/2013, UniProt A0A024B7W1 591-694)
Sequence (A0A024B7W1 591-694 limits assumed): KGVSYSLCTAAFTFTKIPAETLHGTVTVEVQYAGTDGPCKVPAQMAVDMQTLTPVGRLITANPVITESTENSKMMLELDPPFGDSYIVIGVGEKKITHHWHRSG
Test Protocol: BLI, equilibrium
Endpoint Label: Kd

Returns the measured Kd for the input binder. Input: ZV-2 monoclonal antibody (antibody, V domains shown, also called ZIKV-2) VH: QVQLQESGAELMKPGASVKLSCKTSGYTFIGYWIEWLKQRPGHGLEWVGEIFPGSGRTKYNEKFKGRATFTADTSSNMAYMQLSSLTTEDSAIYYCARYYYGSYYALDYWGQGTSVTVSS VL: DIVMTQSPSSLSVSAGEKVTLSCKSSQSLLHSGNQKNYLAWYQQKPGQAPKLLIYGASTRESGVPDRFTGSGSGTDFTLTISSVQAEDLAVYYCQNDHSYPLTFGAGTKLELK
> 250 nM

Returns the measured Kd for the input binder. Input: ZV-67 monoclonal antibody (antibody, V domains shown, also called ZIKV-67) VH: QAQLQQSGTGLARPGASVKLSCKASGYTFTSYGISWVTQRAGQGLEWIGVIYPRSGNTYYNEKFRGKATLTADKSSSSAYMELRGLTAEDSAVYFCARENYGSVYWGQGTTLTVSS VL: DIVMTQSQKFMSTSVGDRVSITCKASQNVGTAVAWYQQKPGQSPKLLIYSASNRYTGVPDRFTGSGSGTDFTLTISNMQSEDLADYFCQQFSSYPYTFGGGTKLEIK
< 10 nM

Returns the measured Kd for the input binder. Input: ZV-54 monoclonal antibody (antibody, V domains shown, also called ZIKV-54) VH: QVQLQQSGVGLARPGTSVKLSCKASGYSFTTYGISWVTQRPGQGLEWIGVIYPRSNNTYYNERFRGKATLTADKSSSSAYLELRGLTAEDSAVYFCARENYGSVYWGQGTTLTVSS VL: DIVMTQSQKFMSTSVGDRVTITCKASQSVGTAVAWYHQKPGQSPKLLIYSASNRYTGVPDRFTGSGSGTDFTLTITYMQSEDLADYFCQQFSNYPFTFGGGTKLEIK
< 10 nM

Returns the measured Kd for the input binder. Input: ZV-48 monoclonal antibody (antibody, V domains shown, also called ZIKV-48) VH: QVQLQQPGAELLKPGASVKLSCKASGYSFSNYWMHWVKQRPGQGPEWIGMIHPNSGNTKYNEKFKNKATLTVDKSSSMVYMQLSSLTSEDSAVFYCARLGNDMDYWGQGTSVTVSS VL: DIVMSQSPSSLAVSVGEKITMSCKSSQSLLYSNNEKNYLAWYQQKPGQSPKLLIYWASARDSGVPDRFTGSGSGTDFTLTISSVKAEDLAVFYCQQYYSYPYTFGGGTKLEIK
~35 nM
